target: T1, VEGF165 (human, UniProt P15692-4 27-191); assay: binding competition ELISA (VEGF165 Quantikine): free VEGF165 captured by the plate antibody
T1 construct: Treated as one molecule; also called VEGF-A165; human VEGF-A165
T1 sequence (P15692 other isoform, or with tags, fused parts or gaps limits assumed): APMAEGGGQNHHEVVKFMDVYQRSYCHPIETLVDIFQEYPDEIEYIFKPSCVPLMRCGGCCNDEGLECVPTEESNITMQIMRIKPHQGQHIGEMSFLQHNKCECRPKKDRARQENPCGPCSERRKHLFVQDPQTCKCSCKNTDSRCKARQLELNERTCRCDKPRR
reported.metric: IC50
// return the numeric value with its unit appended

Ask: # lookup: IC50 of soluble fms-like tyrosine kinase-1 (sFlt), unconjugated (receptor, UniProt P17948 27-328, looked up, domain: first 3 Ig-like extracellular domains; Expressed in High Five insect cells, about 50 kDa; also called recombinant sFlt; soluble Flt-1 receptor; not shown: tag implied by Ni-NTA purification, not described for the tested protein (the ex)) SKLKDPELSLKGTQHIMQAGQTLHLQCRGEAAHKWSLPEMVSKESERLSITKSACGRNGKQFCSTLTLNTAQANHTGFYSCKYLAVPTSKKKETESAIYIFISDTGRPFVEMYSEIPEIIHMTEGRELVIPCRVTSPNITVTLKKFPLDTLIPDGKRIIWDSRKGFIISNATYKEIGLLTCEATVNGHLYKTNYLTHRQTNTIIDVQISTPRPVKLLRGHTLVLNCTATTPLNTRVQMTWSYPDEKNKRASVRRRIDQSNSHANIFYSVLTIDKMQNKDKGLYTCRVRSGPSFKSVNTSVHI
Reply: 3.8 ng/mL
